Test system: MV4-11
Parameters: species or system AML cell lines (8); Primary HTS, single concentration about 10 uM, Cell Titer Glo viability; log10 luminescence, per cent inhibition relative to cycloheximide control
reported.conditions: 72 h, relative to cycloheximide control, log10 luminescence; inhibitor
Where a name gives a salt, the structure may show the parent alone.
Tag: Y if measured MV4-11 %inh is not below 10%, N if it is.

• N#Cc1ccc(NCCNCC(=O)N2CCC[C@H]2C#N)nc1 [SJ000772405-1, NVP DPP 728 DIHYDROCHLORIDE] = N
• CCc1cccc2c3c([nH]c12)C(CC)(CC(=O)O)OCC3 (stereo not drawn) [SJ000285831-7, ETODOLAC] = N
• Cn1cc(C2=C(c3cn(CCN)c4ccccc34)C(=O)NC2=O)c2ccccc21 [SJ000581125-1] = Y
• COc1cc2ncn(-c3cc(OCc4ccccc4C(F)(F)F)c(C(N)=O)s3)c2cc1OC [SJ000573017-1, U19479/72/1] = Y
• NS(=O)(=O)c1cccc(Nc2cc(-c3ccc(F)cc3)n[nH]2)c1 [SJ000573326-1, T350/64/20] = Y
• Cn1c(=O)c(Oc2ccc(F)cc2F)cc2cnc(NCC(C)(C)O)nc21 [SJ000581138-1] = N
• CC(C)(Oc1ccc(Cl)cc1)C(=O)O [SJ000285361-4, CLOFIBRIC ACID] = Y
• Fc1ccc(-c2nn3ncccc3c2-c2ccnc(Nc3ccc4c(c3)OCCO4)n2)cc1 [SJ000573081-1, U18020/136/2] = Y
• Cn1cc(C2=C(c3cn(C)c4cc(C(=O)O)ccc34)C(=O)NC2=O)c2ccccc21 [SJ000580970-1] = N

----------
Tested on: ML-2
Design: species or system AML cell lines (8); Primary HTS, single concentration about 10 uM, Cell Titer Glo viability; log10 luminescence, per cent inhibition relative to cycloheximide control
reported.conditions: 72 h, relative to cycloheximide control, log10 luminescence; inhibitor
# ML-2 %inh per record follows
observation.type: ML-2 %inh (%)

• N#Cc1cccc(Nc2ncc(-c3ccccc3)o2)c1 = 1.759
• O=C1NC(=N[C@@H]2C[C@H]2c2ccccc2)S/C1=C\c1ccc2ncccc2c1 = 0.9867
• CCn1c(-c2nonc2N)nc2c(C#CC(C)(C)O)nc(CN3CCCC3)cc21 = -0.4194
• C[C@]12CCC(=O)C=C1[C@@H]1C[C@@H]1[C@H]1[C@@H]3[C@@H]4C[C@@H]4[C@@]4(CCC(=O)O4)[C@@]3(C)CC[C@@H]12 = -0.6244
• NCc1ccc(-c2nc(-c3ccc(Cl)c(O)c3)c(-c3ccncc3)[nH]2)cc1 = 1.975
• CC1(C)CCC(C)(C)c2cc(C3(c4ccc5cc(C(=O)O)ccc5c4)SCCS3)ccc21 = 0.2271
• CCCCC[C@H](CC(=O)NO)C(=O)N[C@H](C(=O)N1CCC[C@H]1CO)C(C)C = 7.53
• CN1CCC(n2cnc(-c3ccc(F)cc3)c2-c2ccnc(NCCO)n2)CC1 = 6.134
• COc1cc2ncnc(Nc3ccc4c(cnn4Cc4ccccc4)c3)c2cc1OC = -2.157

----------
// reported ML-2 %inh per item
System: ML-2
Design: species or system AML cell lines (8); Primary HTS, single concentration about 10 uM, Cell Titer Glo viability; log10 luminescence, per cent inhibition relative to cycloheximide control
reported.conditions: 72 h, relative to cycloheximide control, log10 luminescence; inhibitor
observation.type: ML-2 %inh (%)

• NC(=O)c1sc(-n2cnc3ccccc32)cc1OCc1ccccc1Br = 42.25
• Cc1cccc(Nc2cc(Cl)nc(SCC(=O)O)n2)c1C = 1.805
• Cn1c(=O)c(Cc2ccc(F)cc2F)cc2cnc(NC3CCOCC3)nc21 = 0.882
• CCn1c(-c2nonc2N)nc2c(C#CC(C)(C)O)ncc(OCC3CCNCC3)c21 = 1.732

Data credit: paper PMC6522510
